Kindly supply the reported selective drug sensitivity score values for the records listed here.
system: RCH-ACV; assay: selective drug sensitivity score (sDSS, relative to normal bone marrow) (sDSS (score)); higher = more potent and effective on the cell line relative to normal bone marrow cells; details: 72 h;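 also: ALL cell lines in 384-well plates, five doses spanning 10,000-fold, each plate scaled between vehicle and 100 µmol/L benzalkonium chloride controls, sDSS an adapted area-under-curve metric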
API note: the answer field is a bare number with no unit suffix.

Q: Short answer please: selective drug sensitivity score, RCH-ACV, entry CNC(=O)c1ccccc1Nc1cc(Nc2ccc(N3CCOCC3)cc2OC)ncc1C(F)(F)F [VS-4718] (top concentration 10000 nM)
Ans: 0.8

Q: Short answer please: selective drug sensitivity score, RCH-ACV, entry CO[C@@H](C(=O)N1Cc2[nH]nc(NC(=O)c3ccc(N4CCN(C)CC4)cc3)c2C1)c1ccccc1 [Danusertib] (top concentration 10000 nM)
Ans: 17.9

Q: Short answer please: selective drug sensitivity score, RCH-ACV, entry CC[C@]1(O)C[C@H]2CN(CCc3c([nH]c4ccccc34)[C@@](C(=O)OC)(c3cc4c(cc3OC)N(C=O)[C@H]3[C@@](O)(C(=O)OC)[C@H](OC(C)=O)[C@]5(CC)C=CCN6CC[C@]43[C@@H]65)C2)C1 [Vincristine] (top concentration 1000 nM)
Ans: 17.2

* * *

system: MOLT-14; experiment: selective drug sensitivity score (sDSS, relative to normal bone marrow) (sDSS (score)); higher = more potent and effective on the cell line relative to normal bone marrow cells; settings: 72 h
Kindly supply the reported selective drug sensitivity score values for the records listed here.
API note: the answer field is a bare number with no unit suffix.

Q: Query: selective drug sensitivity score; subject: Cc1ccc(NC(=O)c2ccc(CN3CC[C@H](N(C)C)C3)c(C(F)(F)F)c2)cc1Nc1nccc(-c2cncnc2)n1 [Bafetinib] (top concentration 1000 nM)
Ans: 0.3

Q: Query: selective drug sensitivity score; subject: COc1cc2c(NC3CCN(C(C)C)CC3)nc(N3CCC(F)(F)CC3)nc2cc1OCCCN1CCCC1 [UNC0642] (top concentration 10000 nM)
Ans: -1.24

Q: Query: selective drug sensitivity score; subject: Cc1ccc(C(=O)Nc2ccc(CN3CCN(C)CC3)c(C(F)(F)F)c2)cc1C#Cc1cnc2cccnn12 [Ponatinib] (top concentration 1000 nM)
Ans: 7.42

Q: Query: selective drug sensitivity score; subject: N#Cc1ccc2[nH]c(O)c(-c3ccc(CN4CCOCC4)cn3)c2c1 [AZD-1080] (top concentration 10000 nM)
Ans: -0.02

Q: Query: selective drug sensitivity score; subject: CC(C)(C)NC(=O)[C@H]1CC[C@H]2[C@@H]3CC[C@H]4NC(=O)C=C[C@]4(C)[C@H]3CC[C@]12C [Finasteride] (top concentration 10000 nM)
Ans: -0.52

Q: Query: selective drug sensitivity score; subject: C=CC(=O)Nc1cc2c(Nc3ccc(F)c(Cl)c3)ncnc2cc1OCCCN1CCOCC1 [Canertinib] (top concentration 10000 nM)
Ans: -0.04

Q: Query: selective drug sensitivity score; subject: NC(=O)NO [Hydroxyurea] (top concentration 1000000 nM)
Ans: 9.16

Q: Query: selective drug sensitivity score; subject: Nc1nc(Cl)nc2c1ncn2[C@H]1C[C@H](O)[C@@H](CO)O1 [Cladribine] (top concentration 1000 nM)
Ans: 5.66

* * *

test system: LC4-1; experiment: selective drug sensitivity score (sDSS, relative to normal bone marrow) (sDSS (score)); higher = more potent and effective on the cell line relative to normal bone marrow cells; settings: 72 h
reported_endpoint: selective drug sensitivity score

Q: Query: selective drug sensitivity score; subject: CC(C)C[C@H](NC(=O)[C@H](Cc1ccccc1)NC(=O)c1cnccn1)B(O)O [Bortezomib] (top concentration 1000 nM)
Ans: 3.32

Q: Query: selective drug sensitivity score; subject: O=C(c1ccc(C(=O)N2CCC(N3CCCC3)CC2)c(Nc2ccccc2)c1)N1CCC(N2CCCC2)CC1 [UNC1215] (top concentration 10000 nM)
Ans: 0

Q: Query: selective drug sensitivity score; subject: CC(C)C[C@@H](C(=O)N[C@H](C(=O)OC1CCCC1)c1ccccc1)[C@H](O)C(=O)NO [Tosedostat] (top concentration 10000 nM)
Ans: 2.26

Q: Query: selective drug sensitivity score; subject: Cn1cc(-c2cnn3c(N)c(Br)c([C@@H]4CCCNC4)nc23)cn1 [MK-8776] (top concentration 2500 nM)
Ans: 0.54

Q: Query: selective drug sensitivity score; subject: CC[C@H](C)C(=O)O[C@H]1C[C@@H](C)C=C2C=C[C@H](C)[C@H](CC[C@@H]3C[C@@H](O)CC(=O)O3)[C@H]21 [Lovastatin] (top concentration 10000 nM)
Ans: 0.8

Q: Query: selective drug sensitivity score; subject: FC(F)(F)c1ccc(/C=C/c2nc(COc3ccc(CCCCn4ccnn4)cc3)co2)cc1 [Mubritinib] (top concentration 1000 nM)
Ans: 4.86
